test-protocol: Selectivity index, ratio of CC50 for human CEM-TK(-) cells to EC50 for antiviral activity against HIV-1 infected in human CEM-TK(-) cells
Assay type: toxicity, cell-based
condition-context: read-out: Ratio CC50/EC50
quantity-kind: selectivity ratio

[[record]]
smiles_representation = "Nc1ccn([C@H]2CC[C@@H](CO)O2)c(=O)n1"
quantity_kind = "selectivity ratio"
measured = 467


====

test-protocol: Selectivity index, ratio of CC50 for human CEM-TK(-) cells to EC50 for antiviral activity against HIV-1 infected in human CEM-TK(-) cells in presence of AZT
Assay type: toxicity, cell-based
condition-context: read-out: Ratio CC50/EC50
quantity-kind: selectivity ratio

[[record]]
smiles_representation = "Nc1ccn([C@H]2CC[C@@H](CO)O2)c(=O)n1"
measured = 922


src = ChEMBL document CHEMBL4813984
